src = paper PMC11459967

# Test summary: Hamster pharmacokinetics (plasma and lung)
# Assay type: in vivo
# Experimental conditions: plasma; single IP dose at 10 mg/kg in male hamster
Measured property: Cmax (ng/mL)

INSERT INTO measurements (compound, measured_property, unit_abbrev, obs_value) VALUES
  ('O=C(CN1C(=O)C(NC(=O)OCc2ccccc2)COc2ccccc21)NC(CC1CCNC1=O)C(=O)COC(=O)c1c(Cl)cccc1Cl (stereo not shown) [Compound 1]', 'Cmax', 'ng/mL', 990);

* * *

# System name: cathepsin L (Homo sapiens, UniProt P07711)
# Construct: purchased RD Systems 952-CY-010
# Sequence (P07711 114-333): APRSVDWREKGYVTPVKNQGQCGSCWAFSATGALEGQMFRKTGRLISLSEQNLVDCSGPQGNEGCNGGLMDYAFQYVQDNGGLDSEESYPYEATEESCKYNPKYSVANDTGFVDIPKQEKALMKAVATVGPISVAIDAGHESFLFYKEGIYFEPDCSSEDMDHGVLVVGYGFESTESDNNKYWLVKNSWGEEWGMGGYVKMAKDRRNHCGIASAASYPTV
# Test summary: Cathepsin L enzymatic assay
# Type: biochemical
# Experimental conditions: as stated in text: no substantial inhibition; read-out: cathepsin L IC50
pIC50: −log10 of the molar value.
Measured property: pIC50

INSERT INTO results (molecule, obs_value) VALUES
  ('O=C(CN1C(=O)C(NC(=O)OCc2ccccc2)COc2ccccc21)NC(CC1CCNC1=O)C(=O)COC(=O)c1c(Cl)cccc1Cl (stereo not shown) [Compound 1]', '< 4.82');

* * *

IC50: recorded values
# System name: cathepsin B (Homo sapiens)
# Construct: purchased RD Systems 953-CY-010
# Test summary: Cathepsin B enzymatic assay
# Assay type: biochemical
# Experimental conditions: enzyme assay, at least 10-point dose-response curves in duplicate; read-out: CatB IC50
Measured property: IC50 (µM)

INSERT INTO assay_data (compound, measured_property, obs_value) VALUES
  ('O=C(CN1C(=O)[C@@H](NC(=O)c2ccc3ccccc3n2)COc2ccccc21)N[C@@H](C[C@@H]1CCNC1=O)C(=O)COC(=O)c1c(Cl)cccc1Cl', 'IC50', 1.8),
  ('O=C(CN1C(=O)C(NC(=O)OCc2ccccc2)COc2ccccc21)NC(CC1CCNC1=O)C(=O)COC(=O)c1c(Cl)cccc1Cl (centres unmarked)', 'IC50', 18),
  ('O=C(CN1C(=O)[C@@H](NC(=O)OCc2ccccc2)COc2ccccc21)N[C@@H](C[C@@H]1CCNC1=O)C(=O)COc1cc(C(F)(F)F)nn1-c1ccc(F)cc1', 'IC50', 27),
  ('COc1cccc2[nH]c(C(=O)N[C@@H](CC(C)C)C(=O)N[C@@H](C[C@@H]3CCNC3=O)C(=O)COC(=O)c3c(Cl)cccc3Cl)cc12 [Compound 18, reference compound]', 'IC50', 0.024),
  ('O=C(CN1C(=O)[C@@H](NC(=O)c2ccccc2)COc2ccccc21)N[C@@H](C[C@@H]1CCNC1=O)C(=O)COC(=O)c1c(Cl)cccc1Cl', 'IC50', 13);

* * *

# Test summary: Hamster pharmacokinetics (plasma and lung)
# Type: in vivo
# Experimental conditions: lung; single IP dose at 10 mg/kg in male hamster; read-out: lung T1/2 (converted)
Measured property: half-life

INSERT INTO measurements (molecule, obs_value) VALUES
  ('O=C(CN1C(=O)C(NC(=O)OCc2ccccc2)COc2ccccc21)NC(CC1CCNC1=O)C(=O)COC(=O)c1c(Cl)cccc1Cl (stereo not shown)', '48.6 min');

* * *

# Test summary: Hamster pharmacokinetics (plasma and lung)
# Format: in vivo
# Experimental conditions: plasma; single IP dose at 10 mg/kg in male hamster; read-out: plasma AUCINF
Measured property: AUC(0-inf)

INSERT INTO results (compound, measured_property, obs_value) VALUES
  ('O=C(CN1C(=O)C(NC(=O)OCc2ccccc2)COc2ccccc21)NC(CC1CCNC1=O)C(=O)COC(=O)c1c(Cl)cccc1Cl (stereo not shown)', 'AUC(0-inf)', '1830 ng·h/mL');
